biological target: CDK4/cyclin D1 (Homo sapiens); assay: CDK/cyclin kinase assay, CDK4/cyclin D1
Sequence (P11802 whole entry): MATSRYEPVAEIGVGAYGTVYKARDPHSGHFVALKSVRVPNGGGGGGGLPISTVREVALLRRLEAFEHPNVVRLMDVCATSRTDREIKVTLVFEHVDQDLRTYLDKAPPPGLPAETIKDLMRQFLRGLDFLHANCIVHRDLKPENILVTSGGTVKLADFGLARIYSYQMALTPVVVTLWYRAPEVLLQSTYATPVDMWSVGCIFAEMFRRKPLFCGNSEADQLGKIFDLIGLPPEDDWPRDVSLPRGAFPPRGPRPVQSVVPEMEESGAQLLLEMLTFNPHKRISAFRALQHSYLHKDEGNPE
Sequence (P24385 whole entry partner): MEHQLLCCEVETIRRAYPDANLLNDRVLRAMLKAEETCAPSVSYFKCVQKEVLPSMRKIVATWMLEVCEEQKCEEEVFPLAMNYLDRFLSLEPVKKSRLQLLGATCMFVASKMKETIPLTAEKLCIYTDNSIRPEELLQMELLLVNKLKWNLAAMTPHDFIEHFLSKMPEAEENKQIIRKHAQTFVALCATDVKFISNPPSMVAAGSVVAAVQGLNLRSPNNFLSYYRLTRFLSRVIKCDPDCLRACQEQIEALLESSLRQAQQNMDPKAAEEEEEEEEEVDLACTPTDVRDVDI
pIC50: −log10 of the molar value.
measurement.kind: pIC50

Guide cases for pIC50, answers given:
>  <given.smiles>
Cc1[nH]c(C#N)c(C)c1-c1ccnc(Nc2ccc(I)cc2)n1

>  <observed.result>
5.96

$$$$
>  <given.smiles>
Cc1c(-c2ccnc(Nc3ccc(N(C)C)c([N+](=O)[O-])c3)n2)c(C)n(C)c1C#N

>  <observed.result>
5.85

$$$$

I: Cc1[nH]c([N+](=O)[O-])c(C)c1-c1ccnc(Nc2ccc(N(C)C)c([N+](=O)[O-])c2)n1
II: Cc1cc(Nc2nccc(-c3c(C)[nH]c(C#N)c3C)n2)ccc1Cl
Compare the recorded pIC50 of I and II ; state which is larger. Please identify the chosen entry by its label. I

* * *

biological target: CDK1/cyclin B1 (Homo sapiens, UniProt P06493); assay: CDK/cyclin kinase assay, CDK1/cyclin B1
Sequence (P06493 whole entry): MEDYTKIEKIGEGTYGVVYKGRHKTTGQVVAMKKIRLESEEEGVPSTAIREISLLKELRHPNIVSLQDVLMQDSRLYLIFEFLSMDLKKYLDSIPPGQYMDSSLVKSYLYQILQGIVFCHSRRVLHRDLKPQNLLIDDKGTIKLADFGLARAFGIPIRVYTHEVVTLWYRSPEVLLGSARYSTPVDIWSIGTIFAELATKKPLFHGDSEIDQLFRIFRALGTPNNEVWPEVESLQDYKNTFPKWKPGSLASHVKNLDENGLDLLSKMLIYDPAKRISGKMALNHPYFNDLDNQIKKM
Sequence (P14635 whole entry partner): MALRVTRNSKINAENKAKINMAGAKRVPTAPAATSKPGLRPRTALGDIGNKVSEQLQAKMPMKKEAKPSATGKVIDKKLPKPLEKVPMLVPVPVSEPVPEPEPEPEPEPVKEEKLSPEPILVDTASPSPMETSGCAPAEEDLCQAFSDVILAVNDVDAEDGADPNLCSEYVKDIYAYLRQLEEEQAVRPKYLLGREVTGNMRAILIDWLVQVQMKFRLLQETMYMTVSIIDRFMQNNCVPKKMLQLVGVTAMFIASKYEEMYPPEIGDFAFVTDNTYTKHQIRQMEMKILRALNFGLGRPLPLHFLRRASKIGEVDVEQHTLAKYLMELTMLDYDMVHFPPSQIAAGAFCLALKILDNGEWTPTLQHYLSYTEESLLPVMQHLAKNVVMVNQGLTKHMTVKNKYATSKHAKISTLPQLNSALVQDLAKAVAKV
pIC50: −log10 of the molar value.
measurement.kind: pIC50

>  <given.smiles>
Cc1ccc(Nc2nccc(-c3sc(=O)n(C)c3C)n2)cc1[N+](=O)[O-]

>  <pIC50>
6.70

$$$$
>  <given.smiles>
Cc1[nH]c(C#N)c(C)c1-c1ccnc(Nc2ccc(N(C)C)c([N+](=O)[O-])c2)n1

>  <pIC50>
7.30

$$$$
>  <given.smiles>
Cc1c(-c2ccnc(Nc3ccc(F)c([N+](=O)[O-])c3)n2)sc(=O)n1C

>  <pIC50>
5.99

$$$$

I: COc1ccc(Nc2nccc(-c3sc(=O)n(C)c3C)n2)cc1
II: Cc1c(-c2ccnc(Nc3ccc(N(C)C)c([N+](=O)[O-])c3)n2)c(C)n(C)c1C#N
III: Cc1[nH]c([N+](=O)[O-])c(C)c1-c1ccnc(Nc2ccc(N(C)C)c([N+](=O)[O-])c2)n1
IV: Cc1c(-c2ccnc(Nc3ccc(N(C)C)cc3)n2)c(C)n(C)c1C#N
Please rank these compounds by pIC50 in descending order. Write the labels in rank order as requested. II, III, I, IV

* * *

tested on: GSK-3β; experiment: GSK-3β kinase assay (phosphorylation of CREB phosphopeptide); type: biochemical, rabbit; settings: ratio of IC50 values
measurement.kind: Selectivity, IC50 (CDK2/E)/IC50 (GSK3β)

A: Cc1[nH]c([N+](=O)[O-])c(C)c1-c1ccnc(Nc2ccc(N(C)C)c([N+](=O)[O-])c2)n1
B: Cc1[nH]c(C#N)c(C)c1-c1ccnc(Nc2ccc(I)cc2)n1
C: Cc1[nH]c([N+](=O)[O-])c(C)c1-c1ccnc(Nc2ccc(N(C)C)cc2)n1
D: Cc1[nH]c(C#N)c(C)c1-c1ccnc(Nc2ccc(N(C)C)c([N+](=O)[O-])c2)n1
Hey, quick one: sort these by Selectivity, IC50 (CDK2/E)/IC50 (GSK3β), top value first please. Write the labels in rank order as requested. D, A, C, B

* * *

biological target: CDK2/cyclin E (Homo sapiens); construct: His6; test: CDK/cyclin kinase assay, CDK2/cyclin E; settings: read-out: Kinase inhibition IC50 CDK2/E
pIC50: −log10 of the molar value.
measurement.kind: pIC50

Guide cases for pIC50, answers given:
>  <given.smiles>
Cc1ccc(Nc2nccc(-c3sc(=O)n(C)c3C)n2)cc1[N+](=O)[O-]

>  <system>
CDK2/cyclin E (Homo sapiens)

>  <pIC50>
6.96

$$$$
>  <given.smiles>
Cc1c(-c2ccnc(Nc3ccc(N(C)C)cc3)n2)c(C)n(C)c1C#N

>  <system>
CDK2/cyclin E (Homo sapiens)

>  <pIC50>
5.96

$$$$
>  <given.smiles>
Cc1[nH]c(C#N)c(C)c1-c1ccnc(Nc2ccc(C(F)(F)F)cc2)n1

>  <system>
CDK2/cyclin E (Homo sapiens)

>  <pIC50>
6.74

$$$$
>  <given.smiles>
Cc1cc(Nc2nccc(-c3c(C)[nH]c(C#N)c3C)n2)ccc1Cl

>  <system>
CDK2/cyclin E (Homo sapiens)

>  <pIC50>
6.00

$$$$
>  <given.smiles>
Cc1c(-c2ccnc(Nc3ccc(F)c([N+](=O)[O-])c3)n2)sc(=O)n1C

>  <system>
CDK2/cyclin E (Homo sapiens)

>  <pIC50>
6.77

$$$$

A: Cc1[nH]c([N+](=O)[O-])c(C)c1-c1ccnc(Nc2ccc(N(C)C)c([N+](=O)[O-])c2)n1
B: Cc1[nH]c(C#N)c(C)c1-c1ccnc(Nc2ccc(N(C)C)cc2)n1
Compare the recorded pIC50 of A and B ; state which is larger. Please identify the chosen entry by its label. A

P: Cc1ccc(Nc2nccc(-c3c(C)[nH]c(C#N)c3C)n2)cc1I
Q: Cc1c(-c2ccnc(Nc3ccc(N(C)C)c([N+](=O)[O-])c3)n2)c(C)n(C)c1C#N
Compare the recorded pIC50 of P and Q ; state which is larger. Please identify the chosen entry by its label. Q

1: Cc1[nH]c(C#N)c(C)c1-c1ccnc(Nc2ccc(I)cc2)n1
2: Cc1[nH]c(C#N)c(C)c1-c1ccnc(Nc2ccc(N(C)C)c([N+](=O)[O-])c2)n1
3: Cc1[nH]c([N+](=O)[O-])c(C)c1-c1ccnc(Nc2ccc(N(C)C)cc2)n1
Please rank these molecules by pIC50 in descending order. Write the labels in rank order as requested. 2, 1, 3
(2: 6.82, 1: 6.26, 3: 6.02)

I: COc1ccc(Nc2nccc(-c3sc(=O)n(C)c3C)n2)cc1
II: Cc1[nH]c(Br)c(C)c1-c1ccnc(Nc2cccc([N+](=O)[O-])c2)n1
Compare the recorded pIC50 of I and II ; state which is larger. Please identify the chosen entry by its label. II
(II: 6.43, I: 6.12)
